TEST_DESCRIPTION: qHTS of pediatric cancer cell lines to identify multiple opportunities for drug repurposing: Primary screen for SJ-GBM2 cells (AID 1347091); also: potency is read from the fitted curve at half-maximal effect
COND: SJ-GBM2 viability, CellTiter-Glo luminescence, 48 h; series mostly up to 46 µM
Records with an inconclusive call do not appear. Calls of active or inactive are those of the source. Calls follow the shape of the dose curve; as a rule, active = well fitted cell-killing curve with a large enough effect; inconclusive = small, poorly fitted or top-dose-only effect; inactive = no such curve, though single readings can be large or run the other way.

COMPOUND | Potency
COc1cccc2nc(-c3cccs3)nc(NN3C(=O)C=C(C)C3=O)c12 | 0.935 µM (active)
C=C1C(=CC=C2CCCC3(C)[C@@H]([C@H](C)C=CC=CC(O)(CC)CC)CC[C@@H]23)C[C@@H](O)C[C@@H]1O (stereo not given in full) | 20.9 µM (active)
O=C(Cc1ccc(-c2ccc(OCCN3CCOCC3)cc2)cn1)NCc1ccccc1 | 0.0187 µM (active)
CCCCCN(CCC12CC3CC(CC(C3)C1)C2)C(=O)NCCCc1ccncc1 | 18.7 µM (active)
O=C(O)CO.[NH2-].[NH2-].[Pt+2] | inactive
Nc1nc(NCCNc2ncc(-n3ccnc3)c(-c3ccc(Cl)cc3Cl)n2)ccc1[N+](=O)[O-] | 4.69 µM (active)
O=C(NC1CCNCC1)c1[nH]ncc1NC(=O)c1c(Cl)cccc1Cl | 0.833 µM (active)
OCCCNc1cc(-c2ccnc(Nc3cccc(Cl)c3)n2)ccn1 | 0.0833 µM (active)
COc1ccc(-c2cc3c(C)nc(N)nc3n(C3CCC(OCCO)CC3)c2=O)cn1 (stereo not given) | 0.0235 µM (active)
CN(C)c1nc(Cc2ccc(NC(=O)c3ccc4ccccc4c3)cc2)nc(Cl)c1CC(=O)O | inactive
C[C@@H]1COC(Nc2ccc3ncnc(Nc4ccc(OCc5nccs5)c(Cl)c4)c3c2)=N1 | 23.5 µM (active)
Cn1cc(-c2[nH]c3cc(NC(=O)[C@H](N)C4CCCCC4)cc4c3c2C=NNC4=O)cn1 | 0.59 µM (active)
O=C(O)CCCc1c[nH]c2ccccc12 | inactive
Nc1ncnc2c1c(-c1cnc3[nH]ccc3c1)nn2C1CCCC1 | 0.132 µM (active)
C[C@]12CC[C@H](O)CC1=CCC1C2CC[C@]2(C)C(n3cnc4ccccc43)=CCC12 (stereo not given in full) | 23.5 µM (active)
NC(=O)c1c(OCc2c(F)cc(Br)cc2F)nsc1NC(=O)NCCCCN1CCCC1 | 20.9 µM (active)
CN(C)CCCN=c1c2ccccc2n(C)c2[nH]c(=O)n(C)c(=O)c12 | 1.87 µM (active)
Cc1ccc(-c2ncn(-c3ccc(Nc4nccc(-c5cccc(N6CCOCC6)c5)n4)cc3)n2)cn1 | 0.105 µM (active)
Nc1nc(Nc2ccc(S(N)(=O)=O)cc2)nn1C(=O)c1c(F)cccc1F | 3.72 µM (active)
COc1cc2ncnc(Nc3ccc(F)c(Cl)c3)c2cc1NC(=O)C=CCN1CCCCC1 | 8.33 µM (active)
NC1(Cc2ccc(Cl)cc2)CCN(c2ncnc3[nH]ccc23)CC1 | 5.26 µM (active)
CCn1cc(-c2ccnc3[nH]c(-c4cccc(CN(C)C)c4)cc23)c(-c2ccc(NC(=O)N(C)C)cc2)n1 | 0.0833 µM (active)
O=c1[nH]c(=O)n(C2CCCO2)cc1F (stereo not given) | inactive
CNC(=O)c1nn(C)c2c1C(C)(C)Cc1cnc(Nc3ccc(N4CCN(C)CC4)cc3)nc1-2 | 1.87 µM (active)
Cc1cc(Nc2cc(NC(=O)c3c(Cl)cccc3Cl)ccn2)nc(N)n1 | 0.59 µM (active)
CN(C)Cc1c(C(=O)NCCOc2ccc(C(=O)NO)cc2)oc2ccccc12 | 1.05 µM (active)
Cc1c(CN2CCN(S(C)(=O)=O)CC2)sc2c(N3CCOCC3)nc(-c3cnc(N)nc3)nc12 | 0.0469 µM (active)
C=CCn1c(=O)c2cnc(Nc3ccc(N4CCN(C)CC4)cc3)nc2n1-c1cccc(C(C)(C)O)n1 | 0.166 µM (active)
CCS(=O)(=O)c1cccc(-c2cc(C(=O)NC3CCN(C)CC3)c(C)c3[nH]c4ncc(C)cc4c23)c1 | 0.526 µM (active)
Cc1[nH]c2ccccc2c1CCNCc1ccc(C=CC(=O)NO)cc1 | 0.148 µM (active)
COc1c(N2C[C@@H]3CCCN[C@H]3C2)c(F)cc2c(=O)c(C(=O)O)cn(C3CC3)c12 | inactive
Fc1cc(-c2cccc3ncc(-c4cnn(C5CCNCC5)c4)nc23)cc(F)c1CN1CCOCC1 | 16.6 µM (active)
CS(=O)(=O)c1ccc(-c2cnc(N)c(C(=O)Nc3ccccc3)n2)cc1 | 5.9 µM (active)
O=C(NCCS(=O)(=O)c1ccc(C(F)(F)F)cn1)c1ccc(Cl)cc1 | inactive
Cc1cn2cc(C(=O)N(C)CCO)cc(N[C@@H]3CCOc4cccc(C)c43)c2n1 | inactive
c1cc(-c2cnn3cc(-c4ccc(OCCN5CCCCC5)cc4)cnc23)ccn1 | 16.6 µM (active)
Cc1nc2cnc3ccc(C#Cc4cccnc4)cc3c2n1-c1ccc(C(C)(C)C#N)cc1 | 0.332 µM (active)
O=C(NCCCNc1nc(Nc2cccc(NC(=O)N3CCCC3)c2)ncc1I)c1cccs1 | 2.96 µM (active)
Cc1cc(Nc2cc(CN3CCOCC3)c3nc(C)c(Cc4ccc(Cl)cc4F)n3n2)n[nH]1 | 23.5 µM (active)
COc1cc(=C2C=c3ccccc3=N2)[nH]c1=Cc1[nH]c(C)cc1C | 1.18 µM (active)

---

System: P94_40
TEST_DESCRIPTION: qHTS profiling for inhibitors of Plasmodium falciparum proliferation (AID 504749); also: nearly all actives have a fitted effect of over 60% in size; also: potency is read from the fitted curve at half-maximal effect
COND: P. falciparum in erythrocytes, SYBR Green DNA, 72 h; series mostly up to 28.7 µM
Inconclusive results are not listed. Activity calls are given as the source filed them. Calls come from the whole dose curve; as a rule, active = well fitted inhibition curve with a large enough effect; inconclusive = small, poorly fitted or top-dose-only effect; inactive = flat fitted curve, though single readings scatter.

COMPOUND | Potency
Nc1ccn([C@@H]2O[C@H](CO)[C@H](O)C2(F)F)c(=O)n1 | 316 nM (active)
Nc1ccn([C@@H]2CS[C@H](CO)O2)c(=O)n1 | inactive
CCC1=C[C@@H]2CN(C1)Cc1c([nH]c3ccccc13)[C@@](C(=O)OC)(c1cc3c(cc1OC)N(C)[C@@H]1[C@@](O)(C(=O)OC)[C@H](OC(C)=O)[C@]4(CC)C=CCN5CC[C@]31[C@@H]54)C2 | 1580 nM (active)
COc1c(N2C[C@@H]3CCCN[C@H]3C2)c(F)cc2c(=O)c(C(=O)O)cn(C3CC3)c12 | inactive
O=c1[nH]c(=O)n(C2CCCO2)cc1F (stereo not drawn) | inactive
CC1(C)O[C@@H]2C[C@@H]3[C@H]4C[C@@H](F)C5=CC(=O)C=C[C@]5(C)[C@@]4(F)[C@@H](O)C[C@]3(C)[C@]2(C(=O)CO)O1 | inactive
CC=CC1=C(C(=O)O)N2C(=O)[C@H](NC(=O)[C@H](N)c3ccc(O)cc3)[C@@H]2SC1 | inactive
CC[C@H]1CN2CCc3cc(OC)c(OC)cc3[C@H]2C[C@@H]1C[C@@H]1NCCc2cc(OC)c(OC)cc21 | 251 nM (active)

---

System: DFO2036
TEST_DESCRIPTION: qHTS profiling for inhibitors of Plasmodium falciparum proliferation (AID 504749); also: nearly all actives have a fitted effect of over 60% in size
COND: P. falciparum in erythrocytes, SYBR Green DNA, 72 h; series mostly up to 28.7 µM
Inconclusive results are not listed. The source made the active and inactive calls. Calls follow the shape of the dose curve; as a rule, active = well fitted inhibition curve with a large enough effect; inconclusive = small, poorly fitted or top-dose-only effect; inactive = flat fitted curve, though single readings scatter.
Classes used: active, inactive

MOLECULE | CLASSIFICATION
COC(=O)C1=C(C)NC(C)=C(C(=O)OCCN2CCN(C(c3ccccc3)c3ccccc3)CC2)C1c1cccc([N+](=O)[O-])c1 (configuration not stated) | active
Nc1ccn([C@@H]2CS[C@H](CO)O2)c(=O)n1 | inactive
COc1c(N2C[C@@H]3CCCN[C@H]3C2)c(F)cc2c(=O)c(C(=O)O)cn(C3CC3)c12 | inactive
C[C@H]1C[C@@H]2[C@@H]([C@@H](O)C[C@@]3(C)[C@H]2CC[C@]3(O)C(=O)CO)[C@@]2(C)C=CC(=O)C=C12 | inactive
CN1c2cc(O)c(N=NC(N)=O)cc2CC1S(=O)(=O)O (configuration not stated) | inactive
Nc1ccn([C@@H]2O[C@H](CO)[C@H](O)C2(F)F)c(=O)n1 | active
COc1cc(C(=O)NS(=O)(=O)c2ccccc2C)ccc1Cc1cn(C)c2ccc(NC(=O)OC3CCCC3)cc12 | inactive

---

TEST_DESCRIPTION: Quantitative High-Throughput drug screen in 47 multiple myeloma cell lines against the NCATS MIPE library collection: ARP1_JJKsccF8 cell viability assay (AID 1918928; also: nearly all actives have a fitted effect of over 40% in size)
COND: ARP1 myeloma cells viability, CellTiter-Glo ATP, 48 h; series mostly up to 45.8 µM
Records with an inconclusive call do not appear. Calls of active or inactive are those of the source. Calls come from the whole dose curve; as a rule, active = well fitted cell-killing curve with a large enough effect; inconclusive = small, poorly fitted or top-dose-only effect, or effect the other way; inactive = no such curve, though single readings can be large or run the other way.
Outcomes: t = active, f = inactive

COMPOUND | CLASSIFICATION
CC1(C)O[C@@H]2C[C@@H]3[C@H]4C[C@@H](F)C5=CC(=O)C=C[C@]5(C)[C@@]4(F)[C@@H](O)C[C@]3(C)[C@]2(C(=O)CO)O1 | t
CNC(=O)CN1CCC(Oc2cc3c(Nc4cccc(Cl)c4F)ncnc3cc2OC)CC1 | t
CC(C)(C)OC(=O)Nc1ccc(-c2cc(C(=O)NCCCCCCC(=O)NO)no2)cc1 | t
O=C(C=Cc1c(C(=O)O)[nH]c2cc(Cl)cc(Cl)c12)Nc1ccccc1 | f
O=c1[nH]c(=O)n(C2CCCO2)cc1F (stereo not drawn) | f
Cc1cc(Nc2cc(N3CCN(C)CC3)nc(C=Cc3ccccc3)n2)n[nH]1 | t
O=C1CCC[C@@H]2[C@H]3CCC[N+]4([O-])CCC[C@@H](CN12)[C@@H]34 (stereo partly drawn) | f
Nc1ccccc1NC(=O)c1ccc(CNC(=O)OCc2cccnc2)cc1 | t
CNC(=O)c1nn(C)c2c1C(C)(C)Cc1cnc(Nc3ccc(N4CCN(C)CC4)cc3)nc1-2 | t
Clc1cccc(-c2nnnn2Cc2cccnc2)c1Cl | f
CC1(C)OC2=C(C(=O)c3ccccc3C2=O)[C@H](NCc2ccccc2)[C@H]1O | t
CCCCc1nc2cc(C=CC(=O)NO)ccc2n1CCN(CC)CC | t
Cc1ccc(NC(=O)C2(c3ccc4c(c3)OC(F)(F)O4)CC2)nc1-c1cccc(C(=O)O)c1 | t
COc1cc(C(=O)N2CCC(N3CCN(C)CC3)CC2)ccc1Nc1ncc2c(n1)N(C)c1ccccc1C(=O)N2C | t
O=C(Nc1ncc(-c2cc(C(F)F)nn2-c2c(Cl)cccc2Cl)s1)C1CC1 | t
Cn1c(=O)n(-c2ccc(C(C)(C)C#N)cc2)c2c3cc(-c4cnc5ccccc5c4)ccc3ncc21 | t
Fc1cc(-c2cccc3ncc(-c4cnn(C5CCNCC5)c4)nc23)cc(F)c1CN1CCOCC1 | t
Cc1cc(Nc2cc(N3CCN(C)CC3)nc(Sc3ccc(NC(=O)C4CC4)cc3)n2)n[nH]1 | t
CC(=O)Nc1sc2c(c1-c1nc3ccccc3s1)CNC2 | t
COC(=O)C[C@](O)(CCCC(C)(C)O)C(=O)O[C@@H]1C(OC)=C[C@]23CCCN2CCc2cc4c(cc2[C@H]13)OCO4 | f
COc1ccc(C(=O)CC2(O)C(=O)Nc3c(Cl)ccc(Cl)c32)cc1 (stereo not drawn) | t
O=C(CCCCCCNC(=O)c1cnc(N(c2ccccc2)c2ccccc2)nc1)NO | t
CNC(=O)c1ccccc1Nc1nc(Nc2ccc(N3CCOCC3)cc2OC)ncc1Cl | t
Cc1nc2ccc(CN(C)c3ccc(C(=O)N[C@@H](CCC(=O)O)C(=O)O)s3)cc2c(=O)[nH]1 | t
CNC(=O)c1cc(Oc2ccc(NC(=O)Nc3cc(C(C)(C)C)nn3-c3ccc4ncccc4c3)c(F)c2)ccn1 | t
CC(=O)OCCN1C(=O)c2c(C)nc3ccc(S(=O)(=O)N4CCOCC4)cc3c2C1=O | f
CN1CCC(CNc2ccc3ncc(-c4cccc(OC(F)(F)F)c4)n3n2)CC1 | t
C=C1C(=CC=C2CCC[C@]3(C)[C@@H]([C@H](C)C=C[C@H](C)C(C)C)CC[C@@H]23)C[C@@H](O)C[C@@H]1O | t
NC1(Cc2ccc(Cl)cc2)CCN(c2ncnc3[nH]ccc23)CC1 | t
OCCCNc1cc(-c2ccnc(Nc3cccc(Cl)c3)n2)ccn1 | t
Cc1nc(Nc2n[nH]c3c2CN(C(=O)N[C@H](CN(C)C)c2ccccc2)C3(C)C)c2sccc2n1 | t
Nc1nc(Nc2ccc(S(N)(=O)=O)cc2)nn1C(=O)c1c(F)cccc1F | t
C=CCn1c(=O)c2cnc(Nc3ccc(N4CCN(C)CC4)cc3)nc2n1-c1cccc(C(C)(C)O)n1 | t
Nc1nc(-c2nn(Cc3ccccc3F)c3ncccc23)nc(N)c1N1CCOCC1 | f
COCCOc1ccc2c(c1)ncn2-c1ccc2cccc(N3CCC(N)CC3)c2n1 | t
Cc1cc(CN2CCN(c3c(Br)cnc4nc(-c5ccc(N6CCN(C)CC6)cc5)[nH]c34)CC2)no1 | t
COc1c(N2C[C@@H]3CCCN[C@H]3C2)c(F)cc2c(=O)c(C(=O)O)cn(C3CC3)c12 | t
CC(C)CC(=O)Nc1n[nH]c2c1CN(C(=O)C1CCN(C)CC1)C2(C)C | t
